system: T1, Human OSM (human, UniProt P13725 26-221)
T1 construct: Recombinant human OSM; also called hOSM; human Oncostatin M
T1 sequence: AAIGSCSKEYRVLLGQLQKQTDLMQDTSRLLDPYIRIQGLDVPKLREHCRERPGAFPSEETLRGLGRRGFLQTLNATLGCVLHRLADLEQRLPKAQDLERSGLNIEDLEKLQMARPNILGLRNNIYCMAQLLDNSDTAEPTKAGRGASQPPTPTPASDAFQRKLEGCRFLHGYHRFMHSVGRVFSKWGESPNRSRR
protocolNotes: BIAcore kinetics, transfection supernatant
quantity: kon (M⁻¹ s⁻¹)
Answer in M⁻¹ s⁻¹, number only, no unit symbol.

The binder listed as Humanised 10G8 H1L2 (antibody, V domains shown) VH: EMQLVESGGGLVQPGGSLRLSCAASGFTFSNYAMSWVRQAPGKGLEWVATISDGGSFTYYLDNVRGRFTISRDNAKNSLYLQMNSLRAEDTAVYYCARDVGHTTFWYFDVWGRGTLVTVSS VL: DIVMTQSPDSLAVSLGERATINCRASKSVSAAGYNFMHWYQQKPGQPPKLLIYYASNLESGVPDRFSGSGSGTDFTLTISSLQAEDVVVYYCLHSREFPFTFGGGTKVEIK shows kon equal to 365000

Lookup result for Humanised 10G8 H1L3 (antibody, V domains shown) VH: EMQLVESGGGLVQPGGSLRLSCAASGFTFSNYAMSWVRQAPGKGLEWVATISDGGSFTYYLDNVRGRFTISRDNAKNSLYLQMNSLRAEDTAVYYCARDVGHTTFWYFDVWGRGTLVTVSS VL: DIVMTQSPDSLAVSLGERATINCRASKSVSAAGYNFMHWYQQKPGQPPKLLIYYASNLESGVPDRFSGSGSGTDFTLTISSLQAEDVAVYYCLHSREFPFTFGGGTNVEIK ; measured kon: 371000

kon reading for Humanised 10G8 H2L3 (antibody, V domains shown) VH: EVQLVESGGGLVQPGGSLRLSCAASGFTFSNYAMSWVRQAPGKGLEWVATISDGGSFTYYLDNVRGRFTISRDNAKNSLYLQMNSLRAEDTAVYYCARDVGHTTFWYFDVWGSGTLVTVSS VL: DIVMTQSPDSLAVSLGERATINCRASKSVSAAGYNFMHWYQQKPGQPPKLLIYYASNLESGVPDRFSGSGSGTDFTLTISSLQAEDVAVYYCLHSREFPFTFGGGTNVEIK : 376000

Looking up Humanised 10G8 H0L3 (antibody, V domains shown) VH: EVQLVESGGGLVQPGGSLRLSCAASGFTFSNYAMSWVRQAPGKGLEWVATISDGGSFTYYLDNVRGRFTISRDNAKNSLYLQMNSLRAEDTAVYYCARDVGHTTFWYFDVWGRGTLVTVSS VL: DIVMTQSPDSLAVSLGERATINCRASKSVSAAGYNFMHWYQQKPGQPPKLLIYYASNLESGVPDRFSGSGSGTDFTLTISSLQAEDVAVYYCLHSREFPFTFGGGTNVEIK , I found its kon recorded as 374000

For 10G8 chimaera (antibody, human IgG1, kappa, V domains shown, Mouse V regions on human gamma 1 wild type and human kappa constant regions; the entries called VH/VL domain (chimera) are full chains; also called 10G8 chimera; 10G8 Chimæra) VH: EMQLVESGEGLVEPGGSLKLSCAASGFTFSNYAMSWVRQTPEKSLEWVATISDGGSFTYYLDNVRGRFTISRDNAKNNLYLQMSHLKSDDTAMYYCARDVGHTTFWYFDVWGSGTLVTVSS VL: DIVLTQSPVFLVVSLGQRATISCRASKSVSAAGYNFMHWYQQKPGQPPKVLIKYASNLESGVPARFSGSGSGTDFTLNIHPVEEEDAVTYYCLHSREFPFTFGGGTNLEIKR the binder record lists kon as 252000

GET /value?item= Humanised 10G8 H0L4 (antibody, V domains shown) VH: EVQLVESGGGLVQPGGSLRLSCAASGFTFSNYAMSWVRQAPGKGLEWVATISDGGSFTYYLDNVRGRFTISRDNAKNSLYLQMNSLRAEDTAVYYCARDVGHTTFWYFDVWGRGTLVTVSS VL: DIVMTQSPDSLAVSLGERATINCRASKSVSAAGYNFMHWYQQKPGQPPKVLIYYASNLESGVPDRFSGSGSGTDFTLTISSLQAEDVVVYYCLHSREFPFTFGGGTNVEIK &field=kon returns 413000

The recorded kon for Humanised 10G8 H1L0 (antibody, V domains shown) VH: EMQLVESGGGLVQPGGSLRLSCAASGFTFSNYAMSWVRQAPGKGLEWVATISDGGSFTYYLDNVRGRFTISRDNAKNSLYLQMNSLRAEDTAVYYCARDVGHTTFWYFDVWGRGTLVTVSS VL: DIVMTQSPDSLAVSLGERATINCRASKSVSAAGYNFMHWYQQKPGQPPKLLIYYASNLESGVPDRFSGSGSGTDFTLTISSLQAEDVAVYYCLHSREFPFTFGGGTKVEIK is 381000

kon measured on Humanised 10G8 H0L0 (antibody, V domains shown) VH: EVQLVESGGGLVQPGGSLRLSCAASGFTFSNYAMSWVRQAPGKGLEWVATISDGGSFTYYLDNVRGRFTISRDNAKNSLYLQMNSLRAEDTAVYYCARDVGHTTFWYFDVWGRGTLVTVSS VL: DIVMTQSPDSLAVSLGERATINCRASKSVSAAGYNFMHWYQQKPGQPPKLLIYYASNLESGVPDRFSGSGSGTDFTLTISSLQAEDVAVYYCLHSREFPFTFGGGTKVEIK = 369000

Entry Humanised 10G8 H0L2 (antibody, V domains shown) VH: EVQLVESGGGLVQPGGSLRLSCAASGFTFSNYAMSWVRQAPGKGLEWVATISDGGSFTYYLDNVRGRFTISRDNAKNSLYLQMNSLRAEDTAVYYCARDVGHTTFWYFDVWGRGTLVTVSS VL: DIVMTQSPDSLAVSLGERATINCRASKSVSAAGYNFMHWYQQKPGQPPKLLIYYASNLESGVPDRFSGSGSGTDFTLTISSLQAEDVVVYYCLHSREFPFTFGGGTKVEIK — recorded kon = 365000

Sample Humanised 10G8 H2L4 (antibody, V domains shown) VH: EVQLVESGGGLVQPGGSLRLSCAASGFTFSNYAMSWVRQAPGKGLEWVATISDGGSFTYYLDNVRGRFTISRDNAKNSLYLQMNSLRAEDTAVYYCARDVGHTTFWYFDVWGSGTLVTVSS VL: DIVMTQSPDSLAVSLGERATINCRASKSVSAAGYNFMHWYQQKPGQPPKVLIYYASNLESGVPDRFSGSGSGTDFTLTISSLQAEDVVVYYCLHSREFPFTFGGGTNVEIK ; kon observed: 448000

kon for Humanised 10G8 H0L1 (antibody, human IgG1, kappa, V domains shown, IgG1 kappa; mature H0 heavy chain and mature L1 light chain; also called Humanised 10G8 H0L1 parent) VH: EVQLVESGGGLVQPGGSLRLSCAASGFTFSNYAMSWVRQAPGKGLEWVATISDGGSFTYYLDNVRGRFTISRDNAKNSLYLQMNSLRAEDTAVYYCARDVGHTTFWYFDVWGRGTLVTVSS VL: DIVMTQSPDSLAVSLGERATINCRASKSVSAAGYNFMHWYQQKPGQPPKVLIYYASNLESGVPDRFSGSGSGTDFTLTISSLQAEDVAVYYCLHSREFPFTFGGGTKVEIKR is 398000
